Origin of measurements: paper PMC6820745

- target_desc: T1, hen egg lysozyme (Gallus gallus (hen), UniProt P00698)
- T1 construct: hen egg lysozyme (lysozyme C), bought from Wako Pure Chemical; also called HEL; source: bought: Wako Pure Chemical (Cat. No. 126-02671), used without further purification
- test_name: SPR; Biacore T200; HEL immobilised on CM5 chip (200 RU); VHH flowed over; 25 °C; PBS with 0.005% Tween 20; global fit to a 1:1 binding model
- condition: both partners purified
assay_readout: kon (M⁻¹ s⁻¹)
Supply the numeric figure in M⁻¹ s⁻¹, leaving out any unit text.

>>> endpoint_value("D3-L11 R106A (VHH, as the VHH chain of m2 with the stated change; source: E. coli BL21(DE3), purified (Ni-NTA, SEC)) VHH: DVQLVESGGGSVQAGGSLRLSCAASGSTDSIEYMTWFRQAPGKAREGVAALYTHTGNTYYTDSVKGRFTISQDKAKNMAYLRMDSVKSEDTAIYTCGATRKYVPVAFALDQSSYDYWGQGTQVTVSS")
"1.11e+06"

Shift focus to the following entry.
Which kon is reported for this binder? D3-L11 Y52A (VHH, as the VHH chain of m2 with the stated change; source: E. coli BL21(DE3), purified (Ni-NTA, SEC)) VHH: DVQLVESGGGSVQAGGSLRLSCAASGSTDSIEYMTWFRQAPGKAREGVAALATHTGNTYYTDSVKGRFTISQDKAKNMAYLRMDSVKSEDTAIYTCGATRKYVPVRFALDQSSYDYWGQGTQVTVSS
2.77e+06
